Item-by-item account of pIC50
- TARGET OF ASSAY: Heparanase (Homo sapiens)
- ASSAY METHOD TEXT: Inhibition of recombinant HPSE (unknown origin) using fondaparinux as substrate incubated for 3 hrs in absence of light by WST1 assay
pIC50: −log10 of the molar value.
MEASURE NAME: pIC50

MOLECULE: Cc1cc2nc(-c3ccc(NC(=O)Nc4ccc(-c5nc6cc(C)c(C)cc6o5)cc4)cc3)oc2cc1C
VAL: < 5.00

MOLECULE: Cc1cc2nc(N3CCC(NC(=O)NC4CCN(c5nc6cc(C)c(C)cc6o5)CC4)CC3)oc2cc1C
VAL: < 5.00

MOLECULE: O=C(O)Cc1cccc(NC(=O)c2ccc(CC(=O)Cc3ccc(C(=O)Nc4cccc(CC(=O)O)c4)cc3)cc2)c1
VAL: < 5.00

MOLECULE: CC(C)CC(NC(=O)Cc1ccc2oc(-c3ccc(NC(=O)Nc4ccc(-c5nc6cc(CC(=O)NC(CC(C)C)B(O)O)ccc6o5)cc4F)c(F)c3)nc2c1)B(O)O (configuration not stated)
VAL: 5.31

MOLECULE: O=C(Cc1ccc2oc(-c3ccc(NC(=O)Nc4ccc(-c5nc6cc(CC(=O)NCB(O)O)ccc6o5)cc4F)c(F)c3)nc2c1)NCB(O)O
VAL: < 5.00

MOLECULE: O=C(O)Cc1cccc(NC(=O)c2ccc(CC(O)Cc3ccc(C(=O)Nc4cccc(CC(=O)O)c4)cc3)cc2)c1
VAL: < 5.00

MOLECULE: O=C(O)Cc1ccc(O)c(NC(=O)c2ccc(NC(=O)Nc3ccc(C(=O)Nc4cc(CC(=O)O)ccc4O)cc3)cc2)c1
VAL: 5.56

----------
- TARGET OF ASSAY: Heparanase (Homo sapiens)
- ASSAY METHOD TEXT: Inhibition of recombinant HPSE (unknown origin) using fondaparinux as substrate incubated for 3 hrs in absence of light by WST1 assay
MEASURE NAME: log10 IC50 (log10 of the value in µM)

MOLECULE: O=C(O)CNC(=O)Cc1ccc2oc(-c3ccc(NC(=S)Nc4ccc(-c5nc6cc(CC(=O)NCC(=O)O)ccc6o5)cc4F)c(F)c3)nc2c1
TARGET OF ASSAY: Heparanase (Homo sapiens)
VAL: -1.10
--
MOLECULE: O=C(O)Cc1ccc2oc(-c3ccc(NC(=O)Nc4ccc(-c5nc6cc(CC(=O)O)ccc6o5)cc4)cc3)nc2c1
TARGET OF ASSAY: Heparanase (Homo sapiens)
VAL: 0.51
--
MOLECULE: O=C(Nc1ccc(C(=O)Nc2cccc(C(=O)O)c2)cc1)Nc1ccc(C(=O)Nc2cccc(C(=O)O)c2)cc1
TARGET OF ASSAY: Heparanase (Homo sapiens)
VAL: 0.96
--
MOLECULE: O=C(Cc1ccc2oc(-c3ccc(NC(=O)Nc4ccc(-c5nc6cc(CC(=O)NC(Cc7ccccc7)C(=O)O)ccc6o5)cc4F)c(F)c3)nc2c1)NC(Cc1ccccc1)C(=O)O (centres undefined)
TARGET OF ASSAY: Heparanase (Homo sapiens)
VAL: -0.14
--
MOLECULE: O=C(O)Cc1ccc2oc(-c3ccc(NC(=S)Nc4ccc(-c5nc6cc(CC(=O)O)ccc6o5)cc4F)c(F)c3)nc2c1
TARGET OF ASSAY: Heparanase (Homo sapiens)
VAL: 0.15

----------
- TARGET OF ASSAY: UniProt Q9Y251
- ASSAY METHOD TEXT: Inhibition of HPSE in human HT1080 cells assessed as reduction in FGF2 mRNA expression after 24 hrs by qPCR analysis relative to control; further: test concentration or dose not given here
- Type: cell-based
Activity calls are given as the source filed them. The calls are words filed in the database; no cut-off is given here.
MEASURE NAME: inhibition

GIVEN SMILES: COc1ccc(C(=O)Nc2ccc(CNc3ccc(-c4nc5cc(CC(=O)O)ccc5[nH]4)cc3F)cc2)cc1Br
MEASURE NAME: inhibition
VAL: Active

GIVEN SMILES: O=C(O)Cc1ccc2oc(-c3ccc(NC(=O)Nc4ccc(-c5nc6cc(CC(=O)O)ccc6o5)cc4F)c(F)c3)nc2c1
MEASURE NAME: inhibition
VAL: Active

GIVEN SMILES: O=C(O)CNC(=O)Cc1ccc2oc(-c3ccc(NC(=S)Nc4ccc(-c5nc6cc(CC(=O)NCC(=O)O)ccc6o5)cc4F)c(F)c3)nc2c1
MEASURE NAME: inhibition
VAL: < 40%

GIVEN SMILES: O=C(O)CNC(=O)Cc1ccc2oc(-c3ccc(NC(=O)Nc4ccc(-c5nc6cc(CC(=O)NCC(=O)O)ccc6o5)cc4F)c(F)c3)nc2c1
MEASURE NAME: inhibition
VAL: < 40%

----------
- TARGET OF ASSAY: Heparanase (Homo sapiens)
- ASSAY METHOD TEXT: Inhibition of recombinant HPSE (unknown origin) using fondaparinux as substrate incubated for 3 hrs in absence of light by WST1 assay
MEASURE NAME: IC50 (nM)

COMPOUND: CC(C)CCNC(=O)Cc1ccc2oc(-c3ccc(NC(=O)Nc4ccc(-c5nc6cc(CC(=O)NCCC(C)C)ccc6o5)cc4F)c(F)c3)nc2c1
VALUE QUALIFIER: >
VAL: 10000
//
COMPOUND: O=C(O)Cc1cccc(NC(=O)c2ccc(NC(=O)Nc3ccc(C(=O)Nc4cccc(CC(=O)O)c4)cc3)cc2)c1
VALUE QUALIFIER: =
VAL: 1760
//
COMPOUND: O=C(O)CNC(=O)Cc1ccc2[nH]c(-c3ccc(NC(=O)Nc4ccc(-c5nc6cc(CC(=O)NCC(=O)O)ccc6[nH]5)cc4F)c(F)c3)nc2c1
VALUE QUALIFIER: >
VAL: 10000
//
COMPOUND: O=C(Cc1ccc2[nH]c(-c3ccc(NC(=O)Nc4ccc(-c5nc6cc(CC(=O)NC(Cc7ccccc7)C(=O)O)ccc6[nH]5)cc4F)c(F)c3)nc2c1)NC(Cc1ccccc1)C(=O)O (configuration not stated)
VALUE QUALIFIER: =
VAL: 820
//
COMPOUND: O=C(O)Cc1ccc2[nH]c(-c3ccc(NC(=O)Nc4ccc(-c5nc6cc(CC(=O)O)ccc6[nH]5)cc4F)c(F)c3)nc2c1
VALUE QUALIFIER: =
VAL: 980
//
COMPOUND: CC(NC(=O)Cc1ccc2oc(-c3ccc(NC(=O)Nc4ccc(-c5nc6cc(CC(=O)NC(C)C(=O)O)ccc6o5)cc4F)c(F)c3)nc2c1)C(=O)O (configuration not stated)
VALUE QUALIFIER: =
VAL: 370
//
COMPOUND: O=C(O)Cc1ccc2oc(-c3ccc(NC(=O)Nc4ccc(-c5nc6cc(CC(=O)O)ccc6o5)cc4F)c(F)c3)nc2c1
VALUE QUALIFIER: =
VAL: 180

----------
- TARGET OF ASSAY: Heparanase (Homo sapiens, UniProt Q9Y251)
- Sequence (Q9Y251 36-109 limits assumed): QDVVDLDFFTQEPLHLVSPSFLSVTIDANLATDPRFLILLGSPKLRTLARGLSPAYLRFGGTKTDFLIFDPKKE
- Sequence (Q9Y251 158-543 limits assumed): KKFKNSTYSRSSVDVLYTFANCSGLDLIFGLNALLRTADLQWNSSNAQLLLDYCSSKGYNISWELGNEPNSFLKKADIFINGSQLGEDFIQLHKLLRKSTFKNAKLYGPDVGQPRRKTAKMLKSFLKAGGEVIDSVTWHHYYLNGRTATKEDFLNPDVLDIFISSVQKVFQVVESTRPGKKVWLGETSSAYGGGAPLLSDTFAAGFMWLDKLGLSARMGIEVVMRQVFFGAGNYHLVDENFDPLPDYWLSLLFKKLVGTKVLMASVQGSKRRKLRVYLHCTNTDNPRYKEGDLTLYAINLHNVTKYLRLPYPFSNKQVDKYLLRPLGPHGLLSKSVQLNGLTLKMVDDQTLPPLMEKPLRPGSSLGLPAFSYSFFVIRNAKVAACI
- ASSAY METHOD TEXT: Inhibition of recombinant HPSE (unknown origin) using fondaparinux as substrate incubated for 3 hrs in absence of light by WST1 assay
pIC50: −log10 of the molar value.

GIVEN SMILES: O=C(O)Cc1cccc(NC(=O)c2ccc(NC(=S)Nc3ccc(C(=O)Nc4cccc(CC(=O)O)c4)cc3F)c(F)c2)c1
pIC50: 5.58
//
GIVEN SMILES: O=C(O)Cc1ccc2[nH]c(-c3ccc(NC(=S)Nc4ccc(-c5nc6cc(CC(=O)O)ccc6[nH]5)cc4F)c(F)c3)nc2c1
pIC50: 6.00
//
GIVEN SMILES: O=C(O)CNC(=O)Cc1ccc2oc(-c3ccc(NC(=O)Nc4ccc(-c5nc6cc(CC(=O)NCC(=O)O)ccc6o5)cc4F)c(F)c3)nc2c1
pIC50: 6.35
//
GIVEN SMILES: O=C(O)Cc1ccc2oc(-c3ccc(NC(=S)Nc4ccc(-c5nc6cc(CC(=O)O)ccc6o5)cc4)cc3)nc2c1
pIC50: 5.74

----------
- ASSAY METHOD TEXT: Antiproliferative activity against HPSE-expressing human CME1 cells after 72 hrs by SRB assay
- Format: functional
MEASURE NAME: IC50 (µM)

GIVEN SMILES: O=C(O)Cc1ccc2oc(-c3ccc(NC(=O)Nc4ccc(-c5nc6cc(CC(=O)O)ccc6o5)cc4F)c(F)c3)nc2c1
UNIT DESCRIPTOR: µM
VAL: 9.5

----------
- TARGET OF ASSAY: Heparanase (Homo sapiens, UniProt Q9Y251)
- ASSAY METHOD TEXT: Inhibition of recombinant HPSE (unknown origin) using fondaparinux as substrate incubated for 3 hrs in absence of light by WST1 assay
MEASURE NAME: IC50

GIVEN SMILES: O=C(Cc1ccc2[nH]c(-c3ccc(NC(=O)Nc4ccc(-c5nc6cc(CC(=O)NCB(O)O)ccc6[nH]5)cc4F)c(F)c3)nc2c1)NCB(O)O
TARGET OF ASSAY: Heparanase (Homo sapiens, UniProt Q9Y251)
MEASURE NAME: IC50
VAL: > 10 µM
--
GIVEN SMILES: O=C(O)Cc1cccc(NS(=O)(=O)c2ccc(NC(=O)Nc3ccc(S(=O)(=O)Nc4cccc(CC(=O)O)c4)cc3)cc2)c1
TARGET OF ASSAY: Heparanase (Homo sapiens, UniProt Q9Y251)
MEASURE NAME: IC50
VAL: > 10 µM
--
GIVEN SMILES: N=C(Nc1ccc(-c2nc3cc(CC(=O)O)ccc3o2)cc1)Nc1ccc(-c2nc3cc(CC(=O)O)ccc3o2)cc1
TARGET OF ASSAY: Heparanase (Homo sapiens, UniProt Q9Y251)
MEASURE NAME: IC50
VAL: 6.02 µM
--
GIVEN SMILES: O=C(Nc1ccc(C(=O)Nc2cccc(B(O)O)c2)cc1)Nc1ccc(C(=O)Nc2cccc(B(O)O)c2)cc1
TARGET OF ASSAY: Heparanase (Homo sapiens, UniProt Q9Y251)
MEASURE NAME: IC50
VAL: > 10 µM
